Assay: Maximum tolerated dose of topotecan in the MOLT-4 model (Piedmont Research Center)
Conditions: SCID, mouse, in vivo; MOLT-4 cell line model
Quantity: MTD (mg/kg)
Answers are plain numbers, in mg/kg.

Reported MTD for CC[C@@]1(O)C(=O)OCc2c1cc1n(c2=O)Cc2cc3c(CN(C)C)c(O)ccc3nc2-1 [topotecan] : what is it? 12
